Molecular target: Insulin-like growth factor 1 receptor (Homo sapiens, UniProt P08069)
Sequence (P08069 31-736 limits assumed): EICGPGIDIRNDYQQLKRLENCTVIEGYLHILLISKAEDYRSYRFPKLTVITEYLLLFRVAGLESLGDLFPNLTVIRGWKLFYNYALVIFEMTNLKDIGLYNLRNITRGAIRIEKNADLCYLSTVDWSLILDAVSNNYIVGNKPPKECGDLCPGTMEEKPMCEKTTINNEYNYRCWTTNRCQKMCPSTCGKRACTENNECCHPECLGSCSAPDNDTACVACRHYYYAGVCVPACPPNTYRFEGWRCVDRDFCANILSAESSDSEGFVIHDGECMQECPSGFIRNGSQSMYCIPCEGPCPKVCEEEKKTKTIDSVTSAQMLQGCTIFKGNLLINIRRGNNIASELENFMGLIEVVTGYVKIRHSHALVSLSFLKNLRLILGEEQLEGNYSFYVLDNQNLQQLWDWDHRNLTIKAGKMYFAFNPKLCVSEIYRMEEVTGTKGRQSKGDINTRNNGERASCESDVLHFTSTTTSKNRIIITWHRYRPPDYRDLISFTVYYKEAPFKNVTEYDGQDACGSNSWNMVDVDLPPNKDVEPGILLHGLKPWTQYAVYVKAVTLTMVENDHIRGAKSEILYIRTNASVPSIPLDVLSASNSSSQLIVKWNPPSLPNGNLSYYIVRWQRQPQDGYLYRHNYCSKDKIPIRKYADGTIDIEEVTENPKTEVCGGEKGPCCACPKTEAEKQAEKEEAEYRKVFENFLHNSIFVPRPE
Sequence (P08069 741-1367 limits assumed): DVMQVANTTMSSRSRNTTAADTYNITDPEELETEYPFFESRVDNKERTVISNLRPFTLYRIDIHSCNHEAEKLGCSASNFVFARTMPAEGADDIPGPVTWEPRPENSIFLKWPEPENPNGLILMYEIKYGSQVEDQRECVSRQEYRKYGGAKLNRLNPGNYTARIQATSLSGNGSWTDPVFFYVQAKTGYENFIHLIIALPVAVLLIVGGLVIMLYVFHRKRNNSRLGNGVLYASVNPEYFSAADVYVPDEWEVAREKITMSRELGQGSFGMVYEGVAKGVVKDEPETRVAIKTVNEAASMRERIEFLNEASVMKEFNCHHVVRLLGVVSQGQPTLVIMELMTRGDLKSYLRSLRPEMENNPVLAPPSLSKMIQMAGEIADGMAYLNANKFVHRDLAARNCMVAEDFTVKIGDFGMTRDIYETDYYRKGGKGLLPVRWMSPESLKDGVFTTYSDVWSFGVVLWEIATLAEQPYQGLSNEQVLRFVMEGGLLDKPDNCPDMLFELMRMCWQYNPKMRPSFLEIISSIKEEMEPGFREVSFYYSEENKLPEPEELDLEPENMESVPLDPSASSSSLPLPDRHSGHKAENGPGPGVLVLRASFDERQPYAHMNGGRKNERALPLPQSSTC
Experiment: Inhibition of IGF-induced autophosphosphorylation of GST-tagged human IGF1R expressed in SF21 cells by time resolved-fluorescent assay
Documented IC50 across a set of compounds
Your answer should be a plain number; it is taken to be in µM.

COMPOUND: CC1(C)C(=O)N(c2ccc(SC(F)(F)F)cc2)C(=O)N1Cc1ccnc(N)c1
VALUE UNITS: µM
IC50: 0.092
//
COMPOUND: CC1(C)C(=O)N(c2ccc(SC(F)(F)F)cc2)C(=O)N1Cc1ccnc(NS(C)(=O)=O)c1
VALUE UNITS: µM
IC50: 4.71

Reported IC50 ( CNC(=O)c1cc(CN2C(=O)N(c3ccc(SC(F)(F)F)cc3)C(=O)C2(C)C)ccn1 ) = 0.703

Reported IC50 ( C[C@H]1C(=O)N(c2ccc(S(=O)(=O)C(F)(F)F)cc2)C(=O)N1Cc1cccnc1 ) = 79.7

Reported IC50 ( CC(=O)Nc1cc(CN2C(=O)N(c3ccc(SC(F)(F)F)cc3)C(=O)C2(C)C)ccn1 ) = 0.098

Reported IC50 ( O=C1CN(Cc2ccnc3ccccc23)C(=O)N1c1ccc(S(=O)(=O)C(F)(F)F)cc1 ) = 5.4

Reported IC50 ( C[C@H]1C(=O)N(c2ccc([S+]([O-])C(F)(F)F)cc2)C(=O)N1Cc1ccnc2ccccc12 (some centres undefined) ) = 2.52

Reported IC50 ( CC1(C)C(=O)N(c2ccc(SC(F)(F)F)cc2)C(=O)N1Cc1ccnc(NCc2ccccc2)c1 ) = 1.05

The reported numbers originate from ChEMBL document CHEMBL1759913.
